SYSTEM UNDER TEST: human GPR119 (Homo sapiens)
Sequence (Q8TDV5 1-335): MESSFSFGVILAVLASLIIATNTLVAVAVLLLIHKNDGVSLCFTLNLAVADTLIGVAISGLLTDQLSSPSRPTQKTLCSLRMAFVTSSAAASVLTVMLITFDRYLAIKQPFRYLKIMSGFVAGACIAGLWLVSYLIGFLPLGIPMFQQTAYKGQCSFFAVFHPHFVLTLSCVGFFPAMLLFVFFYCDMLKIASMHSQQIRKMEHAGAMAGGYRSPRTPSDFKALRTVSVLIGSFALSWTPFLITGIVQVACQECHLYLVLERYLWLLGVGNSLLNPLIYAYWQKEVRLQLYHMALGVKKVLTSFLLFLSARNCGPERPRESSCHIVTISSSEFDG
PROTOCOL DETAILS: β-Arrestin PathHunter assay (U2OS hGPR119 β-arrestin cells)
Type: cell-based
MEASUREMENT CONDITIONS: U2OS, percent of maximal activity relative to standard GPR119 agonist at 10 micromolar; read-out: Intrinsic Activity (Human B-arrestin)
Description: GPR119 agonist activity was also determined with a cell-based assay utilizing DiscoverX PathHunter β-arrestin cell assay technology and their U2OS hGPR119 β-arrestin cell line (DiscoverX Cat # 93-0356C3). In this assay, agonist activation is determined by measuring agonist-induced interaction of β-arrestin with activated GPR119. A small, 42 amino acid enzyme fragment, called ProLink was appended to the C-terminus of GPR119. […]
MEASURED METRIC: Emax (%)

Solved cases below.
MOLECULE: Cc1c(O[C@H]2[C@@H]3COC[C@H]2CN(C(=O)OC(C)C)C3)ncnc1N1CCc2ncccc21
SYSTEM UNDER TEST: human GPR119 (Homo sapiens)
QUANTITY UNIT: %
Emax: 68.8

MOLECULE: CCC1(OC(=O)N2C[C@H]3COC[C@@H](C2)[C@H]3Oc2ncnc(N3CCc4ncccc43)c2C)CC1
SYSTEM UNDER TEST: human GPR119 (Homo sapiens)
QUANTITY UNIT: %
Emax: 68.6

MOLECULE: Cc1c(O[C@H]2[C@@H]3COC[C@H]2CN(C(=O)OC2(C)CCC2)C3)ncnc1N1CCc2ncccc21
SYSTEM UNDER TEST: human GPR119 (Homo sapiens)
QUANTITY UNIT: %
Emax: 63.5

MOLECULE: CC(C)OC(=O)N1CCC(Oc2ncnc(N3CCc4cc(S(C)(=O)=O)ccc43)c2C#N)CC1
SYSTEM UNDER TEST: human GPR119 (Homo sapiens)
QUANTITY UNIT: %
Emax: 70

MOLECULE: Cc1c(O[C@H]2CCN(C(=O)OC(C)(C)C)C[C@H]2F)ncnc1N1CCc2ncccc21 (racemic)
SYSTEM UNDER TEST: human GPR119 (Homo sapiens)
QUANTITY UNIT: %
Emax: 48.6

MOLECULE: Cc1c(O[C@@H]2[C@@H]3COC[C@H]2CN(C(=O)OC2(C)CC2)C3)ncnc1N1CCc2ncccc21
SYSTEM UNDER TEST: human GPR119 (Homo sapiens)
QUANTITY UNIT: %
Emax: 32.1

[1] Cc1c(O[C@@H]2CCN(C(=O)OC3(C)CC3)C[C@@H]2F)ncnc1N1CCc2ncccc21
[2] Cc1c(O[C@@H]2[C@@H]3COC[C@H]2CN(C(=O)OC(C)C)C3)ncnc1N1CCc2cc(S(C)(=O)=O)ccc21
Problem: Returns the identifier with the smallest measured Emax among 1 and 2 . Let me know the label of the one you choose.
Result: 2
(2: 51.6%, 1: 75.8%)

[1] Cc1c(O[C@H]2CCN(C(=O)OC3(C)CC3)C[C@H]2F)ncnc1N1CCc2ncccc21 (racemic)
[2] Cc1c(OC2CCN(C(=O)OC(C)C)CC2)ncnc1N1CCc2ncccc21
Problem: Returns the identifier with the smallest measured Emax among 1 and 2 . Let me know the label of the one you choose.
Result: 2
(2: 29.1%, 1: 74%)
